Where do these numbers come from? They come from PubChem BioAssay (EPA / NIEHS).

- SYSTEM_UNDER_TEST: human Ephrin type-A Receptor 2 (EphA2), EPHA2 (gene 1969)
- TEST_METHOD_NOTES: NVS_ENZ_hEphA2: NovaScreen (NVS) Enzymatic Assay for human Ephrin type-A Receptor 2 (EphA2) (AID 2283155)
Records with an inconclusive call do not appear. The source made the active and inactive calls. The calls were made as follows: active = hit-call score of the fitted dose curve at least 0.9, where 1 is the maximum; inconclusive = response in the unintended direction; inactive = score below 0.9.
EXPERIMENTAL_ENDPOINT: outcome

compound="CC1(C)C(C=C(Cl)Cl)C1C(=O)OC(C#N)c1ccc(F)c(Oc2ccccc2)c1 (stereo not given)" observed_value=inactive
compound=Oc1ccc(Cl)cc1Cc1ccccc1 observed_value=inactive
compound=O=[N+]([O-])/N=C1\NCCN1Cc1ccc(Cl)nc1 observed_value=inactive
compound=CNC(=O)CSP(=S)(OC)OC observed_value=inactive
compound=Oc1cc(Cl)ccc1Oc1ccc(Cl)cc1Cl observed_value=inactive

###

- TEST_METHOD_NOTES: BSK_hDFCGF_Proliferation: Cell Proliferation Assessment in the BioMAP Diversity Plus: hDFCGF Assay (AID 2283059);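 also: curves fitted for both rise and fall of signal versus DMSO baseline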
- MEASUREMENT_CONDITIONS: primary human foreskin fibroblasts
The source made the active and inactive calls. How the source made its calls: active means hit-call score of the fitted dose curve at least 0.9, where 1 is the maximum; inactive means score below 0.9.
Classes used: active, inactive

compound="CC(C)(C)C(O)/C(=C\\c1ccc(Cl)cc1Cl)n1cncn1 (stereo unspecified)" label=active
compound=CC(C)N(C(=O)COc1nnc(C(F)(F)F)s1)c1ccc(F)cc1 label=active
compound=CCOCN(C(=O)CCl)c1c(C)cccc1CC label=active
compound="CCOC1Oc2ccc(OS(C)(=O)=O)cc2C1(C)C (stereo unspecified)" label=inactive
compound=CCCN(CCC)c1c([N+](=O)[O-])cc(C(F)(F)F)cc1[N+](=O)[O-] label=active
compound="CC[C@H](C)[C@H]1O[C@]2(C=C[C@@H]1C)C[C@@H]1C[C@@H](C/C=C(\\C)[C@@H](O[C@H]3C[C@H](OC)[C@@H](O[C@H]4C[C@H](OC)[C@@H](O)[C@H](C)O4)[C@H](C)O3)[C@@H](C)/C=C/C=C3\\CO[C@@H]4[C@H](O)C(C)=C[C@@H](C(=O)O1)[C@]34O)O2 (tested in a mixture with another compound)" label=active
compound=COP(=S)(OC)Oc1ccc(SC)c(C)c1 label=inactive
compound=CCCN(CCOc1c(Cl)cc(Cl)cc1Cl)C(=O)n1ccnc1 label=active
compound=CCC(C)(C)C(=O)OC1=C(c2ccc(Cl)cc2Cl)C(=O)OC12CCCCC2 label=active
compound=CN1CSC(=S)N(C)C1 label=active
compound=COC(=O)c1ccccc1S(=O)(=O)NC(=O)N(C)c1nc(C)nc(OC)n1 label=inactive
compound=Oc1ccc(Cl)cc1Cc1ccccc1 label=active
compound=COP(=S)(OC)Oc1ccc([N+](=O)[O-])cc1 label=inactive
compound=O=C(O)COc1ccc(Cl)cc1Cl label=inactive
compound=CCc1ccc(C(=O)NN(C(=O)c2cc(C)cc(C)c2)C(C)(C)C)cc1 label=inactive
compound=O=C(Nc1ccccc1)Nc1cnns1 label=inactive
compound=[2H]C1([2H])[n+]2ccccc2-c2cccc[n+]2C1([2H])[2H] label=active
compound=Clc1ccccc1-c1nnc(-c2ccccc2Cl)nn1 label=inactive
compound=O=[N+]([O-])c1c(Cl)c(Cl)c(Cl)c(Cl)c1Cl label=active
compound="O=S1OCC2C(CO1)C1(Cl)C(Cl)=C(Cl)C2(Cl)C1(Cl)Cl (stereo unspecified)" label=active
compound="CCC(C)Nc1c([N+](=O)[O-])cc(C(C)(C)C)cc1[N+](=O)[O-] (stereo unspecified)" label=active

###

- TEST_METHOD_NOTES: APR_HepG2_MitoMembPot_24hr: Apredica 24-hour HepG2 Assay for Mitochondrial Membrane Potential (AID 2282911)
- MEASUREMENT_CONDITIONS: imaging, actives raise or lower the signal
- Procedure: APR_HepG2_24hr is a cell-based, multiplexed-readout assay that uses HepG2, a human liver cell line, with measurements taken at 24 hours after chemical dosing in a 384-well plate.APR_HepG2_MitoMembPot_24hr is one of 10 assay component(s) measured or calculated from the APR_HepG2_24hr assay. […] This assay endpoint, APR_HepG2_MitoMembPot_24hr, was analyzed with bidirectional fitting relative to DMSO as the negative control and baseline of activity. […]
The source made the active and inactive calls. How the source made its calls: active means hit-call score of the fitted dose curve at least 0.9, where 1 is the maximum; inactive means score below 0.9.
Classes used: true (1) = active, false (0) = inactive

molecule="O=C(NC(=O)c1c(F)cccc1F)Nc1ccc(OC(F)(F)C(F)OC(F)(F)F)c(Cl)c1 (stereo unspecified)" label="false (0)"
molecule=CCC(C)(C)C(=O)OC1=C(c2ccc(Cl)cc2Cl)C(=O)OC12CCCCC2 label="false (0)"
molecule=COc1nn(CSP(=S)(OC)OC)c(=O)s1 label="false (0)"
molecule="CC(C)(C)C(O)/C(=C\\c1ccc(Cl)cc1Cl)n1cncn1 (stereo unspecified)" label="false (0)"
molecule=CCCN(CCC)c1c([N+](=O)[O-])cc(C(F)(F)F)cc1[N+](=O)[O-] label="true (1)"
molecule=CCS(=O)(=O)c1cccnc1S(=O)(=O)NC(=O)Nc1nc(OC)cc(OC)n1 label="false (0)"
molecule=N#Cc1c(Cl)c(Cl)c(Cl)c(C#N)c1Cl label="false (0)"
molecule=O=C(Nc1ccccc1)Nc1cnns1 label="false (0)"
molecule=COC(=O)c1ccccc1S(=O)(=O)NC(=O)Nc1nc(C)nc(OC)n1 label="false (0)"
molecule=[2H]C1([2H])[n+]2ccccc2-c2cccc[n+]2C1([2H])[2H] label="false (0)"
molecule=COC(=O)c1ccccc1S(=O)(=O)NC(=O)N(C)c1nc(C)nc(OC)n1 label="false (0)"

###

- System: DIO3 (gene 1735)
- TEST_METHOD_NOTES: CCTE_GLTED_hDIO3: CCTE's human Deiodinase 3 (DIO3) Inhibition Assay, Great Lakes Toxicology and Ecology Division (GLTED) Lab (AID 2284055);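 also: potency is for inhibition seen as loss of released iodide signal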
Active and inactive are the calls of the source. Rule for the calls: active = hit-call score of the fitted dose curve at least 0.9, where 1 is the maximum; inconclusive = response in the unintended direction; inactive = score below 0.9.
EXPERIMENTAL_ENDPOINT: AC50

compound=Oc1ccc(Cl)cc1Cc1ccccc1 system_under_test="DIO3 (gene 1735)" observed_value="158 µM (active)"
compound=CCOCN(C(=O)CCl)c1c(C)cccc1CC system_under_test="DIO3 (gene 1735)" observed_value="58.1 µM (active)"
compound=Oc1cc(Cl)ccc1Oc1ccc(Cl)cc1Cl system_under_test="DIO3 (gene 1735)" observed_value="85.5 µM (active)"
compound="CCC(C)(NC(=O)c1cc(Cl)c(C)c(Cl)c1)C(=O)CCl (centres undefined)" system_under_test="DIO3 (gene 1735)" observed_value="41.2 µM (active)"

###

- Read-out: Monocyte Chemoattractant Protein-1 (MCP1), CCL2 (gene 6347)
- TEST_METHOD_NOTES: BSK_4H_MCP1: BioMAP Diversity Plus: 4H Assay for Monocyte Chemoattractant Protein-1 (MCP1) Biomarker Activity (AID 2283018)
- MEASUREMENT_CONDITIONS: primary human endothelial cells (HUVEC); actives raise or lower the signal
Active and inactive are the calls of the source. How the source made its calls: active means hit-call score of the fitted dose curve at least 0.9, where 1 is the maximum; inactive means score below 0.9.
Classes used: active, inactive

compound="CC1(C)C(C=C(Cl)Cl)C1C(=O)OC(C#N)c1ccc(F)c(Oc2ccccc2)c1 (configuration not stated)" label=active
compound=COP(=O)(OC)OC=C(Cl)Cl label=inactive
compound=O=C(O)COc1ccc(Cl)cc1Cl label=inactive
compound=CCCN(CCC)c1c([N+](=O)[O-])cc(C(F)(F)F)cc1[N+](=O)[O-] label=active
compound=CNC(=O)CSP(=S)(OC)OC label=inactive
compound=O=C1c2ccccc2C(=O)N1SC(Cl)(Cl)Cl label=inactive
compound=O=C(Nc1ccccc1)Nc1cnns1 label=inactive

###

- Read-out: Ezrin (EZR), EZR (gene 7430)
- TEST_METHOD_NOTES: LTEA_HepaRG_EZR: Life Technologies and Expression Analysis (LTEA) Assay for Ezrin (EZR) using HepaRG (AID 2283491)
- MEASUREMENT_CONDITIONS: mRNA level, 48 h; actives raise or lower the signal
Active and inactive are the calls of the source. The calls were made as follows: active = hit-call score of the fitted dose curve at least 0.9, where 1 is the maximum; inactive = score below 0.9.
Classes used: active, inactive

molecule=COP(=S)(OC)Oc1ccc(SC)c(C)c1 label=inactive
molecule="CC(C)(C)C(O)/C(=C\\c1ccc(Cl)cc1Cl)n1cncn1 (stereo not drawn)" label=active
molecule=N#CN label=inactive
molecule=CN1CSC(=S)N(C)C1 label=inactive
molecule=CNC(=O)/C=C(\C)OP(=O)(OC)OC label=inactive
molecule="CCC(C)(NC(=O)c1cc(Cl)c(C)c(Cl)c1)C(=O)CCl (stereo not drawn)" label=active
molecule=CC(C)OC(=O)Nc1cccc(Cl)c1 label=inactive
molecule=COP(=S)(OC)Oc1ccc([N+](=O)[O-])cc1 label=inactive
molecule="O=S1OCC2C(CO1)C1(Cl)C(Cl)=C(Cl)C2(Cl)C1(Cl)Cl (stereo not drawn)" label=inactive
molecule="CC(C)(C)C(O)C(Oc1ccc(Cl)cc1)n1cncn1 (stereo not drawn)" label=inactive
molecule=Clc1ccccc1-c1nnc(-c2ccccc2Cl)nn1 label=inactive
molecule="CCC(C)Nc1c([N+](=O)[O-])cc(C(C)(C)C)cc1[N+](=O)[O-] (stereo not drawn)" label=inactive
molecule=CCN(CC)C(=O)SCc1ccc(Cl)cc1 label=inactive
